# measurement target: recombinant human Flag-tagged PARP7 (amino acids 456-657) (Homo sapiens)
# Construct: recombinant human Flag-tagged PARP7 (amino acids 456-657)
# Sequence (Q7Z3E1 456-657): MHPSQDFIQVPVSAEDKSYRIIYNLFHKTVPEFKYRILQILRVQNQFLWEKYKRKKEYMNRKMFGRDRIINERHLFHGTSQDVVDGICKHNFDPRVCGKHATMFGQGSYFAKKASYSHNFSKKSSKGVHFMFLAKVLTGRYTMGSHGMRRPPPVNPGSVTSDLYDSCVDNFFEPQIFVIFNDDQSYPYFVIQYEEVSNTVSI
# experimental protocol: PARP7 biochemical DELFIA assay (auto-MARylation)
# assay context: DELFIA readout, IC50 class
pIC50: −log10 of the molar value.
property: pIC50

[
  {
    "compound": "CC(COCCC(=O)N1CCN(c2ncc(C(F)(F)F)cn2)CC1)n1cc(C(F)F)c2c(=O)[nH]ncc21 (single isomer, unassigned) [Compound 396]",
    "pIC50": "≥ 7.00"
  }
]

Go through the list and state pIC50 for each entry.
1. CC(COCCC(=O)N1CCN(c2ncc(C#N)cn2)CC1)n1cc(C(F)F)c2c(=O)[nH]ncc21 (stereo not drawn) [Compound 440]
2. CC(COCCC(=O)N1CCN(c2ncc(C#N)cn2)CC1)n1nc(C(F)(F)F)c2c(=O)[nH]ncc21 (single isomer, unassigned) [Compound 321]
3. CC1CN(C(=O)CCOCCn2nc(C(F)(F)F)c3c(=O)[nH]ncc32)CCN1c1ncc(C(F)(F)F)cn1 (single isomer, unassigned) [Compound 187]
4. O=C(CCOCC(c1cccc2c(=O)[nH]ncc12)C(F)(F)F)N1CCN(c2ncc(C(F)(F)F)cn2)CC1 (stereo not drawn) [Compound 426]
5. O=C(CCCOc1cccc2c(=O)[nH]ncc12)N1CCN(c2ncc(C(F)(F)F)cn2)CC1 [Compound 37]
6. CC(COCCC(=O)N1CCN(c2ncccc2C(F)(F)F)CC1)n1nc(C(F)(F)F)c2c(=O)[nH]ncc21 (stereo not drawn) [Compound 353]

# output
["≥ 7.00", "≥ 7.00", "≥ 7.00", "5.00 to 6.00", "5.00 to 6.00", "≥ 7.00"]

Go through the list and state pIC50 for each entry.
1. CC(C)(C)c1cnc(N2CCN(C(=O)CCOCCc3cccc4c(=O)[nH]ncc34)CC2)nc1 [Compound 252]
2. O=C(CCOCC(F)(F)c1cccc2c(=O)[nH]ncc12)N1CCN(c2ncc(C(F)(F)F)cn2)CC1 [Compound 424]
3. O=C(CCOCCc1ccc(F)c2c(=O)[nH]ncc12)N1CCN(c2ncc(C(F)(F)F)cn2)CC1 [Compound 158]
4. O=C(CCOCCc1cccc2c(=O)[nH]ncc12)N1CCC(c2cc(C(F)(F)F)on2)CC1 [Compound 219]
5. O=C(CCOCCc1cccc2c(=O)[nH]ncc12)N1CCN(c2ccc(C(F)(F)F)cn2)CC1 [Compound 98]

# output
1: ≥ 7.00; 2: ≥ 7.00; 3: ≥ 7.00; 4: 6.00 to 7.00; 5: ≥ 7.00
